assay: CelltiterGlo viability cell assay; assay type: cell-based; conditions: human, RPMI-8226 cells (multiple myeloma line), 8226, 6 day, 0.01 uM; read-out: viability Replicate 2
measure name: viability at 6 day, 0.01 µM (%)
State the answer as a number, implicitly in %.

# query: viability at 6 day, 0.01 µM of entry COc1cc(OC)cc(-c2noc(N3CCN(C)C4(CCN(c5ccnc(C)c5)CC4)C3)n2)c1 [MRK-740]
102

----------
assay: CelltiterGlo viability cell assay; assay type: cell-based; details: human, MDA-MB-436 breast cancer cells, MDA MB436, 6 day, 3 uM; read-out: viability Average
measure name: viability at 6 day, 3 µM (%)
Respond with the bare value in %.

Fill in: viability at 6 day, 3 µM of "COc1cc(OC)cc(-c2noc(N3CCN(C)C4(CCN(c5ccnc(C)c5)CC4)C3)n2)c1" is ___
113

----------
assay: CelltiterGlo viability cell assay; type: cell-based; conditions: human, CAL851 breast cancer cells, CAL851, 3 day, 3 uM; read-out: viability Replicate 1
measure name: viability at 3 day, 3 µM (%)
The figure you give is taken to be in %; do not add the unit.

Item COc1cc(OC)cc(-c2noc(N3CCN(C)C4(CCN(c5ccnc(C)c5)CC4)C3)n2)c1 [MRK-740] has what recorded viability at 3 day, 3 µM?
88.9

----------
test: CelltiterGlo viability cell assay; type: cell-based; conditions: human, MDA-MB-436 breast cancer cells, MDA MB436, 6 day, 0.03 uM; read-out: viability Replicate 1
measure name: viability at 6 day, 0.03 µM

What value of viability at 6 day, 0.03 µM has been reported for the following compound? "COc1cc(OC)cc(-c2noc(N3CCN(C)C4(CCN(c5ccnc(C)c5)CC4)C3)n2)c1"
99.8%

----------
test: CelltiterGlo viability cell assay; format: cell-based; settings: human, SKMM2 multiple myeloma cells, SKMM2, 3 day, 3 uM; read-out: viability Replicate 1
measure name: viability at 3 day, 3 µM

State the recorded viability at 3 day, 3 µM for this entry: COc1cc(OC)cc(-c2noc(N3CCN(C)C4(CCN(c5ccnc(C)c5)CC4)C3)n2)c1 [MRK-740]
97.6%

----------
test: CelltiterGlo viability cell assay; format: cell-based; settings: human, SKMM2 multiple myeloma cells, SKMM2, 6 day, 9.5 uM; read-out: viability Replicate 1
measure name: viability at 6 day, 9.5 µM (%)
Report the figure in % without appending any unit label.

Fill in the blank: the reported viability at 6 day, 9.5 µM of "COc1cc(OC)cc(-c2noc(N3CCN(C)C4(CCN(c5ccnc(C)c5)CC4)C3)n2)c1" is ____.
83.8

----------
test: CelltiterGlo viability cell assay; format: cell-based; details: human, RPMI-8226 cells (multiple myeloma line), 8226, 3 day, 9.5 uM; read-out: viability Replicate 3
measure name: viability at 3 day, 9.5 µM (%)
Just the number in %, nothing appended.

Quick one: viability at 3 day, 9.5 µM of COc1cc(OC)cc(-c2noc(N3CCN(C)C4(CCN(c5ccnc(C)c5)CC4)C3)n2)c1 [MRK-740] ?
93.4

----------
experiment: CelltiterGlo viability cell assay; type: cell-based; details: human, HCC1143 breast cancer cells, HCC1143, 3 day, 0.3 uM; read-out: viability Average
measure name: viability at 3 day, 0.3 µM (%)
Report the figure in % without appending any unit label.

Form field: reported viability at 3 day, 0.3 µM of "COc1cc(OC)cc(-c2noc(N3CCN(C)C4(CCN(c5ccnc(C)c5)CC4)C3)n2)c1"
98.1

----------
experiment: CelltiterGlo viability cell assay; assay type: cell-based; details: human, SKMM2 cells (multiple myeloma line), SKMM2, 3 day, 30 uM; read-out: viability Average
measure name: viability at 3 day, 30 µM
Be sure to follow the number with its unit.

Value lookup for viability at 3 day, 30 µM; key = "COc1cc(OC)cc(-c2noc(N3CCN(C)C4(CCN(c5ccnc(C)c5)CC4)C3)n2)c1"
67%

----------
Assay: CelltiterGlo viability cell assay
Assay type: cell-based
Details: human, HCC1143 breast cancer cells, HCC1143, 3 day, 0.01 uM; read-out: viability Replicate 1
Description: Supplementary Figure 13. […] Viability of (a) Multiple Myeloma lines and (b) Breast Cancer cell lines following 3 or 6 days treatment with […] manufacturer’s instructions as described in the Supplementary methods. Data are normalized to DMSO control. N=3 biological replicates, +/- SEM. Source data are provided as a Source Data […] CelltiterGlo viability cell assay […]
measure name: viability at 3 day, 0.01 µM
# output: number + unit

Sample COc1cc(OC)cc(-c2noc(N3CCN(C)C4(CCN(c5ccnc(C)c5)CC4)C3)n2)c1 [MRK-740] — what was its viability at 3 day, 0.01 µM?
100%

----------
test: CelltiterGlo viability cell assay; format: cell-based; conditions: human, HCC1806 breast cancer cells, HCC1806, 3 day, 0.01 uM; read-out: viability Replicate 3
measure name: viability at 3 day, 0.01 µM (%)
Return type: number; implicit unit %.

What value of viability at 3 day, 0.01 µM has been recorded for this entry: COc1cc(OC)cc(-c2noc(N3CCN(C)C4(CCN(c5ccnc(C)c5)CC4)C3)n2)c1 [MRK-740]
107

----------
test: CelltiterGlo viability cell assay; type: cell-based; conditions: human, MDA-MB-436 breast cancer cells, MDA MB436, 3 day, 3 uM; read-out: viability Replicate 3
measure name: viability at 3 day, 3 µM (%)
Number only, in %; omit the unit.

Which viability at 3 day, 3 µM is listed for "COc1cc(OC)cc(-c2noc(N3CCN(C)C4(CCN(c5ccnc(C)c5)CC4)C3)n2)c1" ?
91.2

----------
Assay: CelltiterGlo viability cell assay
Type: cell-based
Details: human, HCC1806 breast cancer cells, HCC1806, 3 day, 3 uM; read-out: viability Replicate 2
From the text: Supplementary Figure 13. […] Viability of (a) Multiple Myeloma lines and (b) Breast Cancer cell lines following 3 or 6 days treatment with […] manufacturer’s instructions as described in the Supplementary methods. Data are normalized to DMSO control. N=3 biological replicates, +/- SEM. Source data are provided as a Source Data […] CelltiterGlo viability cell assay […]
measure name: viability at 3 day, 3 µM (%)
Report the figure in % without appending any unit label.

# query: viability at 3 day, 3 µM of entry COc1cc(OC)cc(-c2noc(N3CCN(C)C4(CCN(c5ccnc(C)c5)CC4)C3)n2)c1 [MRK-740]
107

----------
assay: CelltiterGlo viability cell assay; type: cell-based; conditions: human, HCC1143 breast cancer cells, HCC1143, 6 day, 0.3 uM; read-out: viability Average
measure name: viability at 6 day, 0.3 µM (%)
Number only, in %; omit the unit.

Entry "COc1cc(OC)cc(-c2noc(N3CCN(C)C4(CCN(c5ccnc(C)c5)CC4)C3)n2)c1" : reported viability at 6 day, 0.3 µM = ?
110

----------
test: CelltiterGlo viability cell assay; format: cell-based; details: human, HCC1806 breast cancer cells, HCC1806, 6 day, 0.03 uM; read-out: viability Replicate 1
measure name: viability at 6 day, 0.03 µM (%)
Please respond with the number in % and leave the unit unwritten.

Returns the measured viability at 6 day, 0.03 µM for the input compound. Input: COc1cc(OC)cc(-c2noc(N3CCN(C)C4(CCN(c5ccnc(C)c5)CC4)C3)n2)c1 [MRK-740]
111

----------
experiment: CelltiterGlo viability cell assay; assay type: cell-based; conditions: human, HCC1806 cells, HCC1806, 3 day, 0.1 uM; read-out: viability Replicate 2
measure name: viability at 3 day, 0.1 µM (%)
Hi! Could you send only the number? It should be in %, unit omitted.

If you can, please state the reported viability at 3 day, 0.1 µM value of COc1cc(OC)cc(-c2noc(N3CCN(C)C4(CCN(c5ccnc(C)c5)CC4)C3)n2)c1 [MRK-740] .
110

----------
assay: CelltiterGlo viability cell assay; assay type: cell-based; conditions: human, CAL851 breast cancer cells, CAL851, 3 day, 0.03 uM; read-out: viability Average
measure name: viability at 3 day, 0.03 µM (%)
Reply with just the number (in %).

Name the recorded viability at 3 day, 0.03 µM for "COc1cc(OC)cc(-c2noc(N3CCN(C)C4(CCN(c5ccnc(C)c5)CC4)C3)n2)c1" .
94.4

----------
assay: CelltiterGlo viability cell assay; format: cell-based; settings: human, SKMM2 cells (multiple myeloma line), SKMM2, 6 day, 0.03 uM; read-out: viability Replicate 2
measure name: viability at 6 day, 0.03 µM (%)
State the answer as a number, implicitly in %.

Name the reported viability at 6 day, 0.03 µM value associated with the compound COc1cc(OC)cc(-c2noc(N3CCN(C)C4(CCN(c5ccnc(C)c5)CC4)C3)n2)c1 [MRK-740]
105

----------
Target: PRDM9 (Homo sapiens, UniProt Q9NQV7)
Construct: PRDM9 (amino acids: 195–415)
Sequence (Q9NQV7 195-415): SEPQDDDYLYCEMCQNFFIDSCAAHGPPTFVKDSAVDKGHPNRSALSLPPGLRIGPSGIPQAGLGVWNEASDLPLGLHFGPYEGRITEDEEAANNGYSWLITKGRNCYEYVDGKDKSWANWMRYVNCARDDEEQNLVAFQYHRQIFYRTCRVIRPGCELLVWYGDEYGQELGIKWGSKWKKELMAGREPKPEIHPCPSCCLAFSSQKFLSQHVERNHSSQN
Experiment: MOA determination: IC50 at varying SAM or peptide concentrations (SPA)
Format: biochemical
Settings: [H3 1-25]/Km 10; Figure 2e; average of replicates; read-out: Average IC50
Text: Reactions (in quadruplicates) were initiated by adding SAM and followed by measuring the methyltransferase activity using SPA assay. The determined IC50 values were fitted against the corresponding substrate concentrations. An increase in IC50 values when concentration of peptide was increased indicated a peptide-competitive pattern of inhibition.
measure name: pIC50
Quick note: pIC50 means taking -log10 of the concentration in moles per liter.

What does the record list as pIC50 for "COc1cc(OC)cc(-c2noc(N3CCN(C)C4(CCN(c5ccnc(C)c5)CC4)C3)n2)c1" ?
6.77
